Tested on: 425362-245-T-J1 tumor spheroids, viability % test/control;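 note: spheroids exposed to agents for 7 days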
Test: Anticancer human tumor 425362-245-T-J1 patient-derived melanoma cell line growth inhibition; active = viability on the fitted dose curve at most 10% of control; inactive = the rest
Conditions: second compound 0.00949 µM; first compound 0.316 µM; spheroids with HUVEC and MSC
Outcome codes: Y for active, N for inactive

{"columns": ["compound", "qualitative-label"],
 "data": [
  ["COc1cc(C)[nH]c(=O)c1CN1CCc2c(Cl)cc(C(OC)C3COC3)c(Cl)c2C1=O (stereo unspecified) + CC[C@@]1(O)C(=O)OCc2c1cc1n(c2=O)Cc2cc3c(CN(C)C)c(O)ccc3nc2-1", "N"],
  ["COc1ccc([C@@H](O)c2cc(-c3ncnc4cc(N5CCOCC5)ccc34)c(F)cc2Cl)nn1 + CC[C@@]1(O)C(=O)OCc2c1cc1n(c2=O)Cc2cc3c(CN(C)C)c(O)ccc3nc2-1", "N"],
  ["CC1COCCN1c1cc(-c2ccnn2C)c2ccnc(-c3ccn[nH]3)c2n1 (stereo unspecified) + CC[C@@]1(O)C(=O)OCc2c1cc1n(c2=O)Cc2cc3c(CN(C)C)c(O)ccc3nc2-1", "Y"],
  ["[2H]c1nc(C)nc([2H])c1-c1cc(NC[C@@H](C)c2cccc3c(C(=O)NC)ccnc23)ncn1 + CC[C@@]1(O)C(=O)OCc2c1cc1n(c2=O)Cc2cc3c(CN(C)C)c(O)ccc3nc2-1", "N"],
  ["CC(C)n1c(=O)n(C)c2cnc3cc(F)c(-c4ccc(OCCCN5CCCCC5)nc4)cc3c21 + CC[C@@]1(O)C(=O)OCc2c1cc1n(c2=O)Cc2cc3c(CN(C)C)c(O)ccc3nc2-1", "Y"],
  ["Cc1cc(C)c(CNC(=O)c2cc(-c3ccc(CN4CCOCC4)cc3)cc3c2cnn3C2CCCC2)c(=O)[nH]1 + CC[C@@]1(O)C(=O)OCc2c1cc1n(c2=O)Cc2cc3c(CN(C)C)c(O)ccc3nc2-1", "N"]
]}
